system: T1, human α4β7 integrin on cells (human, UniProt P13612 34-1032; P26010 20-798)
T1 construct: whole, on cells; also called α4β7 cell (Hu); RPMI8866 cells
assay.method.text: RPMI8866 cell adhesion to MAdCAM-1
pIC50: −log10 of the molar value. Bridge positions count the residues as written; N and C are the ends. Square brackets hold non-standard residues; d marks the D form. Ends that are not written are not given here. NMeR = CN[C@@H](CCCNC(=N)N)C(=O)O; DIG = diglycolic acid (linker); Pen = CC(C)(S)[C@H](N)C(=O)O
test.readout: pIC50

These recorded examples may help you get a feel for the data.
binder: Ac-[Pen][NMeR]SDTL[Pen]W[dH][dK]-NH2 (disulfide 1-7; not fully specified (residue 10); printed as (Ac Pen N-Me-R S D T L Pen W h k NH2)2 DIG, disulfide Pen-Pen; also: homodimer: two subunits joined by DIG linker) [SEQ ID NO: 104]
pIC50: < 7.00
//
binder: Ac-[Pen][NMeR]SDTL[Pen]W[dY][dK](DIG)-NH2 (disulfide 1-7; also: homodimer (…)2 DIG: the two subunits are joined through the K10 NZ by the DIG linker) [SEQ ID NO: 92]
pIC50: < 7.30

Here is another binder to look at.
Request: Fill in the blank: the reported pIC50 of C[NMeR]SDTLCW-NH2 (disulfide 1-7 (inferred); not fully specified (N-terminus); printed as DIG NH2 C N-Me-R S D T L C W NH2; also: N-terminal DIG linker, number of subunits not shown, N-terminal linker printed without dimer brackets) [SEQ ID NO: 6] is ____.
Result: < 7.30
